- STUDY SYSTEM: human TRPA1 (hTRPA1) (Homo sapiens, UniProt O75762)
- Construct: expressed in transfected cells
- Sequence (O75762 whole entry): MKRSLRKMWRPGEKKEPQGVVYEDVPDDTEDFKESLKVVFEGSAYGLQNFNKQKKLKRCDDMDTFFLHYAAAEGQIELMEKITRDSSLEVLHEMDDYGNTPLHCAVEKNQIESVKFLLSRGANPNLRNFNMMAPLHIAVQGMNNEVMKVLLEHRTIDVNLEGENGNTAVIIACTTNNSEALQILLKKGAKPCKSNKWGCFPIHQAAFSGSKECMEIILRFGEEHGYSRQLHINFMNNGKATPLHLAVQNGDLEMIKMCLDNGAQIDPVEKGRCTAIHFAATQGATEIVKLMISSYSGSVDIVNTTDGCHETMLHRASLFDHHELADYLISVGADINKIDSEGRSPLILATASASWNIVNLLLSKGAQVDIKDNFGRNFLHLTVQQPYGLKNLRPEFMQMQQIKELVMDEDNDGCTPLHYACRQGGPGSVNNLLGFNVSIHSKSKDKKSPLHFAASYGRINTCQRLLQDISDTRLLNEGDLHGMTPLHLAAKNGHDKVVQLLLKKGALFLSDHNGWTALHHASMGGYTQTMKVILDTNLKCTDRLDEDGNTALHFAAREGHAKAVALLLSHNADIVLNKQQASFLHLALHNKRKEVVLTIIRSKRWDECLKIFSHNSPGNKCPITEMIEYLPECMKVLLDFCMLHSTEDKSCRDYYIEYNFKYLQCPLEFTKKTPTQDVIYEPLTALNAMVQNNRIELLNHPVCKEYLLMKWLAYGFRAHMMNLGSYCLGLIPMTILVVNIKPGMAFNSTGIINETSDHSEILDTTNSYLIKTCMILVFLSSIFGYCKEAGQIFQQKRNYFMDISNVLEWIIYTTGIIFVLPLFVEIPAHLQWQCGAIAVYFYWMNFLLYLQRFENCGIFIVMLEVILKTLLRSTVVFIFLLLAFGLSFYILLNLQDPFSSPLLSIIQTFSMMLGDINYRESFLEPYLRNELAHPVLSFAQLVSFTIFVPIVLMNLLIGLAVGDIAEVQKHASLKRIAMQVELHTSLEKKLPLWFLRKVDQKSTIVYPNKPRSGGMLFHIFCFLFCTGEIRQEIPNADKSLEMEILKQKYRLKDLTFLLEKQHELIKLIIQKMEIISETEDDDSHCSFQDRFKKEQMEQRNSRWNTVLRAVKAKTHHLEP
- EXPERIMENT NOTES: hTRPA1 IC50 in presence of albumin and plasma, whole-cell patch clamp
- Type: cell-based
- EXPERIMENTAL CONDITIONS: 25% (v/v) rat plasma, 20 μM AITC; read-out: IC50 + rPlasma
READOUT LABEL: pIC50
Numbers only, as −log10 of the molar value.

Name the recorded pIC50 for C[C@@H](C(=O)Nc1ccnc(-c2cnc(N3CCC[C@H]3C(F)(F)F)nc2)n1)n1cnc2c1c(=O)n(C)c(=O)n2C [Compound 2] . 7.17
